# experimental_system: T1, human LAG-3 (His tag) (human, UniProt P18627 23-450, limits assumed)
# T1 construct: also called LAG-3-His antigen; not shown: His tag
# T1 sequence (looked up): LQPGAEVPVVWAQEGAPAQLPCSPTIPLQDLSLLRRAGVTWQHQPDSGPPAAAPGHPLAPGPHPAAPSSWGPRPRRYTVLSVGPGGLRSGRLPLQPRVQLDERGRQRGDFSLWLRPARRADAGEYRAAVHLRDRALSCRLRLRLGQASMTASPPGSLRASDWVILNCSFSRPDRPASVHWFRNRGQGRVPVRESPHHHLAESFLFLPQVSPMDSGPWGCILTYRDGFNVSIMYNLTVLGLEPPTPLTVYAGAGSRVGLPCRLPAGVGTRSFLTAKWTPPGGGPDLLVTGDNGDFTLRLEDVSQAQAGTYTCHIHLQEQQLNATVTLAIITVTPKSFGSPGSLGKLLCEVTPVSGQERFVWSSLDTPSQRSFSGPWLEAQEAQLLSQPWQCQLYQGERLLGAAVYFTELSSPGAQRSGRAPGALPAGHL
# assay_explanation: BLI (ForteBio Octet), LAG-3 His on Ni-NTA sensor
Reported values of Kd for individual entries
Field: numeric (pM). Do not append units.

Field: example entries. Status: answers known.
humanized antibody AB12T4 (antibody, human IgG4 S228P, kappa, V domains shown, also called FITC-AB12T4) VH: DVQLQESGPGLVKPSQTLSLTCTVTGYSITSFYSWHWIRQFPGKGLEWMGCIQYSGDTDSNPSLKSRITITRDTSENQLFLKLSSVTAADTATYYCARSPYDSDPYYVMDYWGQGTLVTVSS VL: DIVMSQSPDSLAVSLGERITMTCKSSQSLLYSGNQKNYLAWYQQKPGQSPTLLIYWASTRDSGVPDRLTGSGSGTDFTLTISSVQAEDVAVYYCQQYYAYPYTFGQGTKLEIKR : 258
human-mouse chimeric antibody AB12T2 (antibody, human IgG4 S228P, kappa, V domains shown) VH: DVHLQESGPDLVKPSQSLSLTCTVTGYSITSFYSWHWIRQFPGNKLEWMGCIQYSGDTDSNPSLKSRISITRDTSENQLFLHLNSVTTEDTATYYCARSPYDSDPYYVMDYWGQGTSVTVSS VL: DIVMSQSPSSLAVSVGEKITMTCKSSQSLLYSGNQKNYLAWYQQKPGQSPTLLIYWASTRDSGVPDRLTGSGSGTDFTLTISSVKAEDLAVYYCQQYYAYPYTFGGGTKLETKR : 574

Let's switch to this binder now.
Identify the reported Kd for the following entry. humanized antibody AB12T3 (antibody, human IgG4, kappa, V domains shown) VH: DVQLQESGPGLVKPSQTLSLTCTVTGYSITSFYSWHWIRQHPGKGLEWMGCIQYSGDTDSNPSLKSRITITRDTSENQLSLKLSSVTAADTAVYYCARSPYDSDPYYVMDYWGQGTLVTVSS VL: DIVMSQSPDSLAVSLGERATITCKSSQSLLYSGNQKNYLAWYQQKPGQPPTLLIYWASTRDSGVPDRLTGSGSGTDFTLTISSLQAEDVAVYYCQQYYAYPYTFGQGTKLEIKR 546
